test system: Epidermal growth factor receptor (Homo sapiens), P00533 [L861Q]; details: at 0.1 µM
Sequence (P00533 whole entry L861Q): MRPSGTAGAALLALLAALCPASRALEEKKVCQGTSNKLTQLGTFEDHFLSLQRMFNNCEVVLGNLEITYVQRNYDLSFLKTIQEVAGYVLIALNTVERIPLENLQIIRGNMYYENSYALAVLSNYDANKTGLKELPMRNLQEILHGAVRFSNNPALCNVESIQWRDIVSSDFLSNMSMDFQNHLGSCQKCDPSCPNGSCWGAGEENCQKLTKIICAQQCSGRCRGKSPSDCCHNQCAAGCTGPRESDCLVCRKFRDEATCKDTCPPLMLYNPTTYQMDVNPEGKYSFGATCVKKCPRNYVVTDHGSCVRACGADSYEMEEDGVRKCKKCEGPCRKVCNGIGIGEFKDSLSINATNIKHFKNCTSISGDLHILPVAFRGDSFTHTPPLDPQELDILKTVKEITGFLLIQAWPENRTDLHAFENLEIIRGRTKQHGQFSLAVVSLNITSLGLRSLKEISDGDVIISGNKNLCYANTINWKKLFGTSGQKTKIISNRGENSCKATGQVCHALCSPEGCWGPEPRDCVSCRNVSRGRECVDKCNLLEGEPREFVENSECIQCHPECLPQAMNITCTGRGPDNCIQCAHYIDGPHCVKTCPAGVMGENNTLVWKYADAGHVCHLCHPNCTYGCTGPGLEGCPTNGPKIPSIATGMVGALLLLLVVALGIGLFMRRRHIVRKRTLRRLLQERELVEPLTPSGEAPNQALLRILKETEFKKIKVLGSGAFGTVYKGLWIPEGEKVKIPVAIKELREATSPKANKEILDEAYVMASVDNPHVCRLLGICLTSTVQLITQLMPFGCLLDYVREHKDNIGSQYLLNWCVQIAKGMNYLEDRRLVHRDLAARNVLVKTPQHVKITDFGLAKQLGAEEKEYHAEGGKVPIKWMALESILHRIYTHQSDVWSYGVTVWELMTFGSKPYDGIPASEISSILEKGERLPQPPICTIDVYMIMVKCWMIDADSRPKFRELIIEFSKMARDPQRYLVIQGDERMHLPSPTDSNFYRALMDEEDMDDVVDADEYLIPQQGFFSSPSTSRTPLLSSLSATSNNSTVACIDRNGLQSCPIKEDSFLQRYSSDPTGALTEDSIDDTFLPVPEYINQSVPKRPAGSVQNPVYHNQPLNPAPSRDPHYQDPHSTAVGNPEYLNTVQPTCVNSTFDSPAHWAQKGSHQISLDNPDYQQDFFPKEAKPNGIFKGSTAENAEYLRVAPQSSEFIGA
readout_type: inhibition (%)
A number alone suffices; assume %.

Study these solved cases before continuing.
{"smiles_input": "CNC(=O)c1cccc(C#Cc2cncnc2Nc2ccc(OCc3cccc(F)c3)c(Cl)c2)c1", "readout_unit": "%", "inhibition": 25.9}
{"smiles_input": "c1cc(-c2cnn3nc(N4CCOCC4)ccc23)nc(NC2CC2)n1", "readout_unit": "%", "inhibition": 3.88}

Any idea what inhibition was measured for CN(C)CCOc1ccc(-c2nc(-c3ccncc3)c(-c3ccc4c(c3)CC/C4=N\O)[nH]2)cc1 ?
2.57

* * *

This section presents molecules with their documented inhibition values.
molecular target: Maternal embryonic leucine zipper kinase (Homo sapiens) (UniProt Q14680); conditions: at 1 µM;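 further: each value is the mean inhibition of MELK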
Sequence (Q14680 whole entry, looked up): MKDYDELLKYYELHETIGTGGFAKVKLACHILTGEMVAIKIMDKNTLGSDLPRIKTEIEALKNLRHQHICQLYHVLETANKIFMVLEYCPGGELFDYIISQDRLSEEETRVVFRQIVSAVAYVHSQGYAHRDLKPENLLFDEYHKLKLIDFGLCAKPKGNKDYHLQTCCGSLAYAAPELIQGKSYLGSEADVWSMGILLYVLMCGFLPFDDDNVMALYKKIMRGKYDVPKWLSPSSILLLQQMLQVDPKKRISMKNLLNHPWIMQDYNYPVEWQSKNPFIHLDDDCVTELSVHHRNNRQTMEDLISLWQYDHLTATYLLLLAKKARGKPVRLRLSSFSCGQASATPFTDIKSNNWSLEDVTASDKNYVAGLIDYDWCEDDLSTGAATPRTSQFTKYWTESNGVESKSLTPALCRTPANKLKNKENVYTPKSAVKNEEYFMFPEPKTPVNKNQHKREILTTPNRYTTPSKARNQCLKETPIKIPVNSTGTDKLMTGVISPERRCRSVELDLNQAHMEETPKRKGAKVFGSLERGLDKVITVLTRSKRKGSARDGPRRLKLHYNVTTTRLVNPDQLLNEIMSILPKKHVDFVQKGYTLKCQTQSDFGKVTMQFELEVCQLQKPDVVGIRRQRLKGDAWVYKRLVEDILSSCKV
Quick note: give the figure in %, leave out the unit.

Study these solved cases before continuing.
{"smiles_input": "COC(=O)Nc1nc2ccc(Oc3ccc(NC(=O)Nc4cccc(Cl)c4)cc3)cc2[nH]1", "study_target": "Maternal embryonic leucine zipper kinase (Homo sapiens) (UniProt Q14680)", "inhibition (%)": -2.93}
{"smiles_input": "CCN1CCC(CC(=O)Nc2n[nH]c3nnc(-c4cccc(F)c4F)cc23)CC1", "study_target": "Maternal embryonic leucine zipper kinase (Homo sapiens) (UniProt Q14680)", "inhibition (%)": 2.39}
{"smiles_input": "O=C(Nc1n[nH]c2cc(-c3ccc(F)cc3)ccc12)C1CC1", "study_target": "Maternal embryonic leucine zipper kinase (Homo sapiens) (UniProt Q14680)", "inhibition (%)": 8.01}
{"smiles_input": "CN1CCC(n2cnc(-c3ccc(F)cc3)c2-c2ccnc(Nc3ccccc3)n2)CC1", "study_target": "Maternal embryonic leucine zipper kinase (Homo sapiens) (UniProt Q14680)", "inhibition (%)": 3.22}

Let us examine a further case.
Look up inhibition with Maternal embryonic leucine zipper kinase (Homo sapiens) (UniProt Q14680) for this molecule: COc1ccc(-c2cc(-c3c[nH]nc3-c3ccccn3)ccn2)cc1
8.05

* * *

inhibition reference
biological target: Discoidin domain-containing receptor 2 (Homo sapiens) (UniProt Q16832); settings: at 1 µM;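 further: reported figure is the mean inhibition of DDR2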
Sequence (Q16832 whole entry, the tested form may be a part): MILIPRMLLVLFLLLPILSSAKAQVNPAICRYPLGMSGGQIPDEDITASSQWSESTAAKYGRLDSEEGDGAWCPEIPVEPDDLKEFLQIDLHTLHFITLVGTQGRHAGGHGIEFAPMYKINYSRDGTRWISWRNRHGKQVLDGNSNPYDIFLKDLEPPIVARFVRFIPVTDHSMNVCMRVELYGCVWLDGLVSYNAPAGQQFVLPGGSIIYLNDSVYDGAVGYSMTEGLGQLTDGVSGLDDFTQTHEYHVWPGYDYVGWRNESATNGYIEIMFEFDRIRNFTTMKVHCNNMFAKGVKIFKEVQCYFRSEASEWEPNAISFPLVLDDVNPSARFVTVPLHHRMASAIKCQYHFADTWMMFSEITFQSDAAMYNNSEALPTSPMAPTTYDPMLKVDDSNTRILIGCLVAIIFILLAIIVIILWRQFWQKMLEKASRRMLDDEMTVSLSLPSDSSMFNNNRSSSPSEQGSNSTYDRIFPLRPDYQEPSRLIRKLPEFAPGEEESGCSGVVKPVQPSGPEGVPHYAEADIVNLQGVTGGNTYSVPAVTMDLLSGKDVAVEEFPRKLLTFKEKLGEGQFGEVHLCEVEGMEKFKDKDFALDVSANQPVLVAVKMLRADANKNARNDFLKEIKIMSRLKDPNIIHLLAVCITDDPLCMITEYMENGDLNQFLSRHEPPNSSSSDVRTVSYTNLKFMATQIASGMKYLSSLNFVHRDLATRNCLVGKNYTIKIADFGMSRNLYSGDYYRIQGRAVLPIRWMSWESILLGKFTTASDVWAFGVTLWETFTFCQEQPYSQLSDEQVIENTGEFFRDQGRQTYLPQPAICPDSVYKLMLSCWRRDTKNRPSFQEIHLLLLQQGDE
Give just the number in %; leave the unit off.

{"smiles_input": "CNC(=O)c1cc(-c2ccc(F)cc2)cc(-c2ccc(S(=O)(=O)N3CCCC3)cc2)c1N", "study_target": "Discoidin domain-containing receptor 2 (Homo sapiens) (UniProt Q16832)", "readout_unit": "%", "value_observed": 1.38}
{"smiles_input": "CCn1c(-c2nonc2N)nc2ccccc21", "study_target": "Discoidin domain-containing receptor 2 (Homo sapiens) (UniProt Q16832)", "readout_unit": "%", "value_observed": 2.19}
{"smiles_input": "O=C(Nc1n[nH]c2cc(-c3ccc(F)cc3)ccc12)C1CC1", "study_target": "Discoidin domain-containing receptor 2 (Homo sapiens) (UniProt Q16832)", "readout_unit": "%", "value_observed": 1.71}
{"smiles_input": "CS(=O)(=O)CCNCc1coc(-c2ccc3ncnc(Nc4ccc(OCc5ccccc5)cc4)c3c2)c1", "study_target": "Discoidin domain-containing receptor 2 (Homo sapiens) (UniProt Q16832)", "readout_unit": "%", "value_observed": 1.8}
{"smiles_input": "COC(=O)Nc1nc2ccc(S(=O)(=O)c3ccc(NC(=O)Nc4cc(C(F)(F)F)ccc4F)cc3)cc2[nH]1", "study_target": "Discoidin domain-containing receptor 2 (Homo sapiens) (UniProt Q16832)", "readout_unit": "%", "value_observed": 62.7}

Now let's try a different one.
If you can, please state the reported inhibition value of CCCN1CCC(c2ccc(Nc3nc(Nc4cc(F)ccc4C(N)=O)c4cc[nH]c4n3)c(OC)c2)CC1 .
3.39

* * *

target: 5'-AMP-activated protein kinase catalytic subunit alpha-1 (Homo sapiens); settings: at 0.1 µM;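 further: enzyme tested as the AMPK alpha1 beta1 gamma1 complex, values reported as mean percent inhibition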
Description: GSK_PKIS: AMPKA1 (A1B1G1) mean inhibition at 0.1 uM [Nanosyn]
Entry flag: Fulfilled if inhibition reaches 3%; Not fulfilled if it does not.

// below: answered compounds
{"smiles_input": "c1ccc(COc2ccc(Nc3ncnc4ccc(-c5ccco5)cc34)cc2)cc1", "classification": "Not fulfilled"}
{"smiles_input": "CCCN(CCS(C)(=O)=O)Cc1ccc(-c2ccc3ncnc(Nc4ccc(OCc5cccc(F)c5)c(Cl)c4)c3c2)o1", "classification": "Not fulfilled"}

Determine whether this compound has inhibition no lower than 3%: Nc1nc(-c2ccc(F)cc2)c(-c2ccc3ncccc3n2)s1
Fulfilled

Continue with COc1cccc(-c2c[nH]c3c(N/N=C/c4ccncc4)ncnc23)c1
Not fulfilled

* * *

Measured inhibition, listed per entry.
biological target: Ribosomal protein S6 kinase alpha-5 (Homo sapiens) (UniProt O75582); conditions: at 1 µM;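 further: mean inhibition of MSK1, from screening of the GSK PKIS inhibitor set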
Sequence (O75582 whole entry, looked up): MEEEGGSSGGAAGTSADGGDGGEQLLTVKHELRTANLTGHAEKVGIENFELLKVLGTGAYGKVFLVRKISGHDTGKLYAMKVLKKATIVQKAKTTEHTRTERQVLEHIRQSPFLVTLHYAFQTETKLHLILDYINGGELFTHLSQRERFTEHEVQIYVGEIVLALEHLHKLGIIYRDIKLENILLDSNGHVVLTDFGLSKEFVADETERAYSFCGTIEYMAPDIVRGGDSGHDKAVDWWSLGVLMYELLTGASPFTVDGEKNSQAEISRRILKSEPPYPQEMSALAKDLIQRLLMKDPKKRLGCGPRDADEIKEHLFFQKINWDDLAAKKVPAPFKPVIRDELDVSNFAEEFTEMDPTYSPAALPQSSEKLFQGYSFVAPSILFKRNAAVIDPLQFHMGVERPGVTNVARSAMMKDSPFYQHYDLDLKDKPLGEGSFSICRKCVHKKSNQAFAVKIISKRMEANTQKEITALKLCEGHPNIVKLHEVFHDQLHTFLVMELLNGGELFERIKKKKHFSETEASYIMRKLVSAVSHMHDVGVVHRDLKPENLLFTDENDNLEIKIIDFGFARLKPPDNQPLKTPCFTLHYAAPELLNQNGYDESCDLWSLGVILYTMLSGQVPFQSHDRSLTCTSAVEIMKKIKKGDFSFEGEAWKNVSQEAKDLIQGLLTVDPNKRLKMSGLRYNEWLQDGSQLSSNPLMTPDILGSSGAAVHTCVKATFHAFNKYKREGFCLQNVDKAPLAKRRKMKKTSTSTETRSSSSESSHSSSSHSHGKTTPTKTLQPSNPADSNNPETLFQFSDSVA
Express your answer in %, writing the number without its unit.

Consider the worked cases shown below.
{"smiles_input": "CC(=O)Nc1cccc(C#Cc2cncnc2Nc2ccc(OCc3cccc(F)c3)c(Cl)c2)c1", "readout_unit": "%", "value_observed": -3.85}
{"smiles_input": "COc1cc2ncn(-c3cc(OCc4ccccc4C(F)(F)F)c(C(=O)N(C)C)s3)c2cc1OC", "readout_unit": "%", "value_observed": -0.4}
{"smiles_input": "N#Cc1c(NC(=O)CN2CCOCC2)sc2c1CCCC2", "readout_unit": "%", "value_observed": 3.12}
{"smiles_input": "O=S(=O)(CCNCc1ccc(-c2ccc3ncnc(Nc4ccc(OCc5cccc(F)c5)c(Cl)c4)c3c2)o1)c1ccccc1", "readout_unit": "%", "value_observed": 4.66}
{"smiles_input": "Cc1cccc(Nc2ncc(-c3ccccc3)o2)c1", "readout_unit": "%", "value_observed": 6.07}
{"smiles_input": "Fc1ccc(-c2nn3ncccc3c2-c2ccnc(Nc3ccc4c(c3)OCCO4)n2)cc1", "readout_unit": "%", "value_observed": 2.22}
{"smiles_input": "CCn1c(-c2nonc2N)nc2cnc(Oc3cccc(NC(=O)c4ccc(N(C)C)cc4)c3)cc21", "readout_unit": "%", "value_observed": 80.5}
{"smiles_input": "Fc1ccc(-c2nn3ccccc3c2-c2ccncc2)cc1", "readout_unit": "%", "value_observed": 5.97}

Given the entry COc1ccc(-c2nn3ncccc3c2-c2ccnc(Nc3ccc4c(c3)OCCO4)n2)cc1 , what inhibition was observed with Ribosomal protein S6 kinase alpha-5 (Homo sapiens) (UniProt O75582)?
-0.38

Next entry: COc1cccc(-n2ncc3c(N/N=C/c4ccc(F)cc4)ncnc32)c1
4.15

Now consider CCn1c(-c2nonc2N)nc2c(C#CC(C)(C)O)nc(OC[C@H](N)c3ccccc3)cc21 .
17.7

Please answer likewise for COc1ccc(-c2cc(-c3c[nH]nc3-c3ccccn3)ccn2)cc1
4.22

Try this compound next: CCN1CCC(CC(=O)Nc2n[nH]c3nnc(-c4cccc(F)c4F)cc23)CC1
-0.87

* * *

target: Calcium/calmodulin-dependent protein kinase type II subunit delta (Homo sapiens); conditions: at 1 µM;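 further: mean percent inhibition of CAMK2D, from screening of the GSK Published Kinase Inhibitor Set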
Label rule, in plain words: inhibition of 4% and up is yes (1), under 4% is no (0).

Here's what some known entries look like.
{"smiles_input": "COc1ccc2[nH]c3c4[nH]c5ccc(OC)cc5c4c4c(c3c2c1)C(=O)NC4=O", "classification": "yes (1)"}
{"smiles_input": "COc1cc(Nc2nccc(Nc3ccc4c(C)n[nH]c4c3)n2)cc(OC)c1OC", "classification": "no (0)"}
{"smiles_input": "Fc1ccc(-c2nn3ccccc3c2-c2ccncc2)cc1", "classification": "no (0)"}

Shifting focus to the compound that follows.
Reported inhibition reaches at least 4% for Cc1ccc2c(-c3ccnc(Nc4ccccc4)n3)c(-c3ccc(F)cc3)nn2n1 ?
yes (1)

* * *

system: Platelet-derived growth factor receptor alpha (Homo sapiens), P16234 [T674I]; details: at 1 µM
Sequence (P16234 whole entry T674I): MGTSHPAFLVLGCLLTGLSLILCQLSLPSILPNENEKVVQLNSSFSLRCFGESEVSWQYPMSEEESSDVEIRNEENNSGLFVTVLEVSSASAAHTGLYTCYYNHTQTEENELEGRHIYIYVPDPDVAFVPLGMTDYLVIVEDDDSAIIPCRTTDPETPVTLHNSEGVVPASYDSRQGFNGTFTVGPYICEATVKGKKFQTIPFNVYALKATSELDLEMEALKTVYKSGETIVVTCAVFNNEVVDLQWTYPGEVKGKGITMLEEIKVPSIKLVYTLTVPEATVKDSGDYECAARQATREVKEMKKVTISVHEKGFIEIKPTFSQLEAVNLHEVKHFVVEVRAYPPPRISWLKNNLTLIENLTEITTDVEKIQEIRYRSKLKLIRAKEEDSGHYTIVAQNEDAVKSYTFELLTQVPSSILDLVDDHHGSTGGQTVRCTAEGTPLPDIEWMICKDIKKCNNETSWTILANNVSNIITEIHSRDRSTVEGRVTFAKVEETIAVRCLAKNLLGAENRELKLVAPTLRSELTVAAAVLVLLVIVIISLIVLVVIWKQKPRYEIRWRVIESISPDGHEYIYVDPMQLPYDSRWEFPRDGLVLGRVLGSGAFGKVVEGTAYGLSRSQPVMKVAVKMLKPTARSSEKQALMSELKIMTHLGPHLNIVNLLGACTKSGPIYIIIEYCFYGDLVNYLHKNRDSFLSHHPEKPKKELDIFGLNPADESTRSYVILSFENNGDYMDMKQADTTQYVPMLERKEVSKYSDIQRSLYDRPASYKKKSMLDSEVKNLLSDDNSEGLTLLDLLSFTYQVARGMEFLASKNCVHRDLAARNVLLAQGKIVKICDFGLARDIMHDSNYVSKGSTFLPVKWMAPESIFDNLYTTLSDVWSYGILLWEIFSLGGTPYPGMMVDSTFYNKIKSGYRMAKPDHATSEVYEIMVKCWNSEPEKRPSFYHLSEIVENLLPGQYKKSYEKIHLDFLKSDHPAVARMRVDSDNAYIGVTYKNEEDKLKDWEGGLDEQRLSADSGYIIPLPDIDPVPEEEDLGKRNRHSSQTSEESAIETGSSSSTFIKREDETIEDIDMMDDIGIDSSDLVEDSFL
readout_type: inhibition (%)
Respond numerically; units are % and should not be typed.

{"smiles_input": "CCN1CCC(CC(=O)Nc2n[nH]c3nnc(-c4cccc(F)c4F)cc23)CC1", "readout_unit": "%", "inhibition": 4.83}

Returns the measured inhibition for the input compound. Input: Fc1cccc(COc2ccc(Nc3ncnc4sc(-c5ccco5)cc34)cc2Cl)c1
15.5

* * *

target: Serine/threonine-protein kinase PLK1 (Homo sapiens); conditions: at 1 µM;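 further: reported value is a mean PLK1 inhibition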
Listed here: items and their measured inhibition.
Entry rule: numbers only, all in %.

{"smiles_input": "CS(=O)(=O)CCNCc1coc(-c2ccc3ncnc(Nc4ccc(OCc5ccccc5)cc4)c3c2)c1", "readout_unit": "%", "value_observed": 5.02}
{"smiles_input": "CCn1cc(-c2ccnc3[nH]ccc23)c(-c2cccc(NC(=O)Nc3ccc(OCc4ccccc4)cc3)c2)n1", "readout_unit": "%", "value_observed": -0.98}
{"smiles_input": "NS(=O)(=O)c1ccc(Nc2ncc(-c3ccccc3)o2)cc1", "readout_unit": "%", "value_observed": 3.33}
{"smiles_input": "CN1CCC(n2cnc(-c3ccc(F)cc3)c2-c2ccnc(N)n2)CC1", "readout_unit": "%", "value_observed": 0.91}
{"smiles_input": "Fc1ccc(-c2nn3ccccc3c2-c2ccncc2)cc1", "readout_unit": "%", "value_observed": 0.66}
{"smiles_input": "Nc1nc(-c2cccc(Cl)c2)c(-c2ccc3ncccc3n2)s1", "readout_unit": "%", "value_observed": 4.49}
{"smiles_input": "COc1ccc(CNC(=O)c2ccc(-c3cc(-c4nnc(C)o4)ccc3C)cc2)cc1", "readout_unit": "%", "value_observed": 1.61}
{"smiles_input": "O=S(=O)(CCNCc1ccc(-c2ccc3ncnc(Nc4ccc(OCc5cccc(F)c5)c(Cl)c4)c3c2)o1)c1ccccc1", "readout_unit": "%", "value_observed": 5.8}
{"smiles_input": "Fc1ccc(-c2cc(-c3c[nH]nc3-c3ccccn3)ccn2)cc1", "readout_unit": "%", "value_observed": 3.1}

I have this compound here, [O-][S+]1CCN(Cc2ccc(-c3ccc4ncnc(Nc5ccc(OCc6cccc(F)c6)c(Cl)c5)c4c3)o2)CC1 , and I need its recorded inhibition.
4.68
